Data credit: PubChem BioAssay (EPA / NIEHS)

Read-out: Peroxisomal acyl-coenzyme A oxidase 1 (ACOX1) gene, ACOX1 (gene 51)
procedureText: LTEA_HepaRG_ACOX1: Life Technologies and Expression Analysis (LTEA) Assay for Peroxisomal acyl-coenzyme A oxidase 1 (ACOX1) gene using HepaRG (AID 2283467)
conditionsUsed: mRNA level, 48 h; actives raise or lower the signal
The source made the active and inactive calls. How the source made its calls: active means hit-call score of the fitted dose curve at least 0.9, where 1 is the maximum; inactive means score below 0.9.
Labels: active, inactive

molecule: CCCCCCCCCCCCCCO
class: inactive
//
molecule: Cc1nccn1-c1ccc(Sc2cccc(C3(C(N)=O)CCOCC3)c2)cc1
class: active
//
molecule: Cc1ccc(S(=O)(=O)NC(=O)NN2CCCCCC2)cc1
class: inactive
//
molecule: CCCCCCCCCCCCCCCCOS(=O)(=O)O
class: inactive
//
molecule: CCCCCCOC(=O)CC(CC(=O)OCCCCCC)(OC(=O)CCC)C(=O)OCCCCCC
class: inactive
//
molecule: OC(Cn1cncn1)(Cn1cncn1)c1ccc(F)cc1F
class: inactive
//
molecule: CC(=O)c1ccccc1
class: inactive
//
molecule: OCCNCCO
class: inactive
//
molecule: c1ccc2c(c1)-c1cccc3c1c-2cc1ccccc13
class: active
//
molecule: OCC(CO)(CO)CO
class: inactive
//
molecule: c1ccc2ncccc2c1
class: inactive
//
molecule: CC(C)CCCCCCOC(=O)C1CCCCC1C(=O)OCCCCCCC(C)C (stereo not drawn)
class: inactive
//
molecule: CCCCOC(=O)c1ccccc1
class: inactive
//
molecule: C[C@]12C=CC(=O)C=C1CC[C@H]1[C@@H]3C[C@@H](O)[C@](O)(C(=O)CO)[C@@]3(C)C[C@H](O)[C@@]12F
class: inactive
//
molecule: O=C(O)c1cccc(C[C@@H]2COc3ccc(OCc4nc5cc(F)ccc5s4)cc3[C@@H]2O)c1
class: inactive
//
molecule: CCCCC(CC)C(=O)OCCOCCOCCOC(=O)C(CC)CCCC (stereo not drawn)
class: inactive
//
molecule: CCc1cccc(CC)c1N
class: inactive
//
molecule: Cc1ncc([C@@H](CCCCCCc2ccc3c(n2)NCCC3)CC(=O)O)cn1
class: inactive
//
molecule: CNC(C)=O
class: inactive
//
molecule: O=C1CN(N=Cc2ccc([N+](=O)[O-])o2)C(=O)N1
class: inactive
//
molecule: C[C@@H](Oc1ccc(CNC(=O)c2cccnc2Oc2ccc3c(c2)OCO3)c(F)c1)C(=O)O
class: inactive
//
molecule: OC[C@H]1O[C@@](CO)(O[C@H]2O[C@H](CO)[C@@H](O)[C@H](O)[C@H]2O)[C@@H](O)[C@@H]1O
class: inactive
//
molecule: NC(=O)N1c2ccccc2C=Cc2ccccc21
class: inactive
//
molecule: CCCc1ccccc1
class: inactive
//
molecule: CC(C)CC(C)O (stereo not drawn)
class: inactive
//
molecule: Cc1nc(-c2ccccn2)ncc1C(=O)Nn1cc(C)c2cc(F)ccc21
class: inactive
//
molecule: CCn1nc(C)c2c1C(=O)NCC(c1ccc(O)cc1)=N2
class: inactive
//
molecule: NNC(=O)c1ccncc1
class: inactive
//
molecule: CC[C@H](C)C(=O)O[C@H]1C[C@H](O)C=C2C=C[C@H](C)[C@H](CC[C@@H](O)C[C@@H](O)CC(=O)O)[C@H]21
class: inactive
//
molecule: COCc1nnc(-c2ccc[n+]([O-])c2)n1-c1c(Cl)c(Cl)cc2[nH]c(=O)c(=O)[nH]c12
class: inactive
//
molecule: COc1cc2c(c(OC)c1OC)-c1ccc(OC)c(=O)cc1[C@@H](NC(C)=O)CC2
class: active
//
molecule: Cn1c(=O)c2[nH]cnc2n(C)c1=O
class: inactive
//
molecule: CCOC(N)=O
class: inactive
